Tested on: Jurkat
Test: Cytotoxicity against human Jurkat cells after 72 hrs by MTT assay
Type: functional, cell-based
log10 of IC50 values by entry
assay readout: log10 of IC50 (log10 of the value in nM)

O=C(/C=C/c1ccccc1)OC1C2OC(=O)CC2O[C@@H]1Cc1ccccc1 (single isomer, unassigned): 2.46
O=C(/C=C/c1ccccc1)O[C@@H]1[C@H]([C@@H](O)c2ccccc2)O[C@H]2CC(=O)O[C@@H]12 [(+)-CRASSALACTONE B]: 2.08
COc1ccc(/C=C/C(=O)OC2C3OC(=O)CC3O[C@@H]2Cc2ccccc2)cc1 (single isomer, unassigned): 2.92
COc1ccc(/C=C/C(=O)O[C@@H]2[C@H]3OC(=O)C[C@H]3O[C@@H]2[C@H](O)c2ccccc2)cc1: 4.13
O=C(/C=C/c1ccccc1)O[C@@H]1[C@H]2OC(=O)C[C@H]2O[C@@H]1[C@@H](OC(=O)/C=C/c1ccccc1)c1ccccc1: 2.49
O=C(/C=C/c1ccccc1)O[C@@H](c1ccccc1)[C@H]1O[C@@H]2CC(=O)O[C@@H]2[C@H]1O: 3.01
COc1ccc(/C=C/C(=O)O[C@@H](c2ccccc2)[C@H]2O[C@@H]3CC(=O)O[C@@H]3[C@H]2O)cc1: 4.27
